The reader will find reported melting point values listed item by item below.

Study these solved cases before continuing.
CC(OC1CCCC1)c1cc2c(=O)n(NS(C)(=O)=O)c(=O)[nH]c2cc1C(F)(F)F (centres unmarked) [Example 17]	188 to 192 °C
CC(C)OC(C)c1cc2c(=O)n(NS(C)(=O)=O)c(=O)[nH]c2cc1C(F)(F)F (centres unmarked) [Example 5]	110 to 115 °C
CS(=O)(=O)Nn1c(=O)[nH]c2cc(C(F)(F)F)c(-c3cccc(C#N)c3)cc2c1=O [Example 34]	291 to 292 °C

Please give the measured melting point for this compound: COC(c1cc2c(=O)n(NS(C)(=O)=O)c(=O)[nH]c2cc1C(F)(F)F)C(C)C (centres unmarked) [Example 23] 227 to 229 °C

Returns the measured melting point for the input compound. Input: CCCC(O)c1cc2c(=O)n(NS(C)(=O)=O)c(=O)[nH]c2cc1C(F)(F)F (centres unmarked) [Example 11] 223 to 226 °C

# query: melting point of entry CCC(O)c1cc2c(=O)n(NS(C)(=O)=O)c(=O)[nH]c2cc1C(F)(F)F (centres unmarked) [Example 7] 219 to 222 °C

For the compound shown here, CS(=O)(=O)Nn1c(=O)[nH]c2cc(C(F)(F)F)c(CCCO)cc2c1=O [Example 25] , give the reported melting point. 243 to 247 °C

What melting point value was documented for this compound, CCOC(C)c1cc2c(=O)n(NS(C)(=O)=O)c(=O)[nH]c2cc1C(F)(F)F (centres unmarked) [Example 4] ? 105 to 112 °C
